test system: Balb/C 3T3 clone A31 cells; assay: MTT colorimetric cytotoxicity assay; type: cell-based, mouse; settings: % cytotoxicity in Balb/C 3T3 clone A31 cells at 128 μM; standard deviation (N = 8) in parentheses
property.label: Cytotox Balb/C 3TC

molecule: N#CCNC(=O)[C@@H]1CCCC[C@H]1C(=O)N1CCN(c2ccccc2)CC1 [Compound 8]
test.system: Balb/C 3T3 clone A31 cells
property.label: Cytotox Balb/C 3TC
result: 0 (0) %
//
molecule: CS(=O)(=O)c1ccc(N2CCN(C(=O)[C@@H]3CCCC[C@H]3C(=O)NC3(C#N)CC3)CC2)cc1 [Compound 9]
test.system: Balb/C 3T3 clone A31 cells
property.label: Cytotox Balb/C 3TC
result: 3 (7) %
//
molecule: COc1cc(N2CCN(C(=O)[C@@H]3CCCC[C@H]3C(=O)NC3(C#N)CC3)[C@H](C)C2)ccc1C1CC1 [Compound 11]
test.system: Balb/C 3T3 clone A31 cells
property.label: Cytotox Balb/C 3TC
result: 0 (0) %
//
molecule: COc1ccc(N2CCN(C(=O)[C@@H]3CCCC[C@H]3C(=O)NC3(C#N)CC3)[C@H](C)C2)cc1OC [Compound 10]
test.system: Balb/C 3T3 clone A31 cells
property.label: Cytotox Balb/C 3TC
result: 0 (0) %
//
molecule: Cc1nn(C)c2cc(N3CCN(C(=O)[C@@H]4CCCC[C@H]4C(=O)NC4(C#N)CC4)[C@H](C)C3)ccc12 [Compound 12]
test.system: Balb/C 3T3 clone A31 cells
property.label: Cytotox Balb/C 3TC
result: 0 (0) %
//
molecule: O=C(Cn1ccnc1[N+](=O)[O-])NCc1ccccc1 [Compound 1, benznidazole]
test.system: Balb/C 3T3 clone A31 cells
property.label: Cytotox Balb/C 3TC
result: 0 (0) %
//
molecule: N#CC1(NC(=O)[C@H](Cc2ccccc2)N[C@H](c2ccccc2)C(F)(F)F)CC1 [Compound 5]
test.system: Balb/C 3T3 clone A31 cells
property.label: Cytotox Balb/C 3TC
result: 1 (7) %
//
molecule: CC(C)(F)C[C@H](N[C@@H](c1ccc(-c2ccc(S(C)(=O)=O)cc2)cc1)C(F)(F)F)C(=O)NC1(C#N)CC1 [Compound 4, odanacatib]
test.system: Balb/C 3T3 clone A31 cells
property.label: Cytotox Balb/C 3TC
result: 27 (15) %
//
molecule: N#CCNC(=O)[C@@H]1CCCC[C@H]1C(=O)N1CCCCC1 [Compound 7]
test.system: Balb/C 3T3 clone A31 cells
property.label: Cytotox Balb/C 3TC
result: 2 (7) %

---

Below, each entry is listed alongside its reported inhibition at 8 µM.
Tested on: amastigote forms of T. cruzi CL Brener strain
Experiment: Anti-trypanosomal activity assay (beta-galactosidase reporter, infected LLC-MK2 cells)
Format: cell-based
Details: Trypanosoma cruzi, LLC-MK2; 8 μM; standard deviation (N = 6) in parentheses; read-out: %activity at 8 μM
Procedure: Assays were performed against amastigote forms of T. cruzi CL Brener strain, which expresses β-galactosidase derived from Escherichia coli, infecting monkey kidney (LLC-MK2) cells as described. […] Then, 10 μL of FluoReporter lacZ/Galactosidase Quantitation Kit (Molecular Probes, ThermoFisher Scientific) were added and after 30 minutes the fluorometric reaction was read in a microplate reader (Synergy H1, Biotek) at 386 nm excitation and 448 nm emission. […]

compound.structure.string: N#CCNC(=O)[C@@H]1CCCC[C@H]1C(=O)N1CCN(c2ccccc2)CC1
unit.symbol: %
inhibition at 8 µM: 35
//
compound.structure.string: N#CC1(NC(=O)[C@H](Cc2ccccc2)N[C@H](c2ccccc2)C(F)(F)F)CC1
unit.symbol: %
inhibition at 8 µM: 70
//
compound.structure.string: Cc1nn(C)c2cc(N3CCN(C(=O)[C@@H]4CCCC[C@H]4C(=O)NC4(C#N)CC4)[C@H](C)C3)ccc12
unit.symbol: %
inhibition at 8 µM: 50
//
compound.structure.string: COc1cc(N2CCN(C(=O)[C@@H]3CCCC[C@H]3C(=O)NC3(C#N)CC3)[C@H](C)C2)ccc1C1CC1
unit.symbol: %
inhibition at 8 µM: 83
//
compound.structure.string: N#CCNC(=O)[C@@H]1CCCC[C@H]1C(=O)N1CCCCC1
unit.symbol: %
inhibition at 8 µM: 12
//
compound.structure.string: CC(C)(F)C[C@H](N[C@@H](c1ccc(-c2ccc(S(C)(=O)=O)cc2)cc1)C(F)(F)F)C(=O)NC1(C#N)CC1
unit.symbol: %
inhibition at 8 µM: 44
//
compound.structure.string: CS(=O)(=O)c1ccc(N2CCN(C(=O)[C@@H]3CCCC[C@H]3C(=O)NC3(C#N)CC3)CC2)cc1
unit.symbol: %
inhibition at 8 µM: 33
//
compound.structure.string: O=C(Cn1ccnc1[N+](=O)[O-])NCc1ccccc1
unit.symbol: %
inhibition at 8 µM: 59
